target: hERG (KCNH2) (Homo sapiens, UniProt Q12809); assay: Inhibition of hERG at 30 uM relative to control; type: toxicity
Sequence (Q12809 whole entry): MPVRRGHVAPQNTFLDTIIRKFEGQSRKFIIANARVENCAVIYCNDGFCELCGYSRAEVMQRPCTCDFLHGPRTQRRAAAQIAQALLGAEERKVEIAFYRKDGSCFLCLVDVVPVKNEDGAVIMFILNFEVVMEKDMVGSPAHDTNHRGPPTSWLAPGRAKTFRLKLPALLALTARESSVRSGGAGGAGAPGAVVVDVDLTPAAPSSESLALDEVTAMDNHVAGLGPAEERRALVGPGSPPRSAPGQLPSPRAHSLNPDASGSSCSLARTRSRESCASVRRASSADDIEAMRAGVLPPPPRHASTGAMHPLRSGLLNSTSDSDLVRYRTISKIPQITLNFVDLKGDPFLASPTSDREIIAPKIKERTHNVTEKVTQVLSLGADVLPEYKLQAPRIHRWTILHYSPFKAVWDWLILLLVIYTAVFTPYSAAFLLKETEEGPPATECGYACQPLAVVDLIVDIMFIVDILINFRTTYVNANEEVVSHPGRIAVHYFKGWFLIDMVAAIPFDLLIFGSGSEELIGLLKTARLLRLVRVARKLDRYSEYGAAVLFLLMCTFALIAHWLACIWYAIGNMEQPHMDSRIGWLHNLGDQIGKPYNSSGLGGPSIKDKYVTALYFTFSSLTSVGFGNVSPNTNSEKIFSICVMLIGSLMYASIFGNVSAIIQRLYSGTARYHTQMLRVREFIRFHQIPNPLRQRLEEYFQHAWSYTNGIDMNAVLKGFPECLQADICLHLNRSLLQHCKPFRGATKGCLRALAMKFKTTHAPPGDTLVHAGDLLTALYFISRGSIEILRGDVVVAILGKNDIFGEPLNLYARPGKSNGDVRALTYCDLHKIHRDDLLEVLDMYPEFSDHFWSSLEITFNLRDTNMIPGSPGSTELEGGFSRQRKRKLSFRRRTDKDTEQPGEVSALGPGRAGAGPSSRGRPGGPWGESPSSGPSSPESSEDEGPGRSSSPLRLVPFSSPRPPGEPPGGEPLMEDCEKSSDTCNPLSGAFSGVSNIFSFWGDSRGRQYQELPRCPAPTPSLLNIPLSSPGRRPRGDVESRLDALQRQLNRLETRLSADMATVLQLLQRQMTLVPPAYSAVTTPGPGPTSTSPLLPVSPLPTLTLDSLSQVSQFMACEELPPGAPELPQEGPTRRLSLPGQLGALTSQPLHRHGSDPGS
readout: inhibition at 30 µM (%)
Please reply with the bare figure in % and do not write the unit itself.

-- ask Consider the molecule shown here: C[C@@H]1C[C@@H](NC(=O)c2ncc(-c3cccc(C#N)c3)o2)CN1C#N What is its recorded inhibition at 30 µM?
-- reply 30.2

* * *

assay: Ratio of drug level in brain to blood in BALB/c mouse at 5 mg/kg, po; assay type: ADME, organism-based
readout: Kp
I'd appreciate a reply containing only the number, no unit.

-- ask Consider the compound shown here: CO[C@H]1C[C@@H]2CC[C@@H](C)[C@@](O)(O2)C(=O)C(=O)N2CCCC[C@H]2C(=O)O[C@H]([C@H](C)C[C@@H]2CC[C@@H](OCCO)[C@H](OC)C2)CC(=O)[C@H](C)/C=C(\C)[C@@H](O)[C@@H](OC)C(=O)[C@H](C)C[C@H](C)/C=C/C=C/C=C/1C What is its recorded Kp?
-- reply 0.015
